src = the supplement of paper PMC9112550

- System: Escherichia coli TOP10
- protocol.details: shrunken log2 fold change of peptide-encoding DNA abundance (4.5 h post-induction vs induction); higher = less antimicrobial activity (less host growth inhibition)
- test.conditions: time post-induction: 4.5 h; library: site-saturation at positions 5, 18, 19, 20
Can you tell me shrunken log2 fold change for the items I'm about to list?
Reply briefly: the number, and no unit.

Prompt line: Answer with reported shrunken log2 fold change of RRIRHRPPRLPRPRPRPEKWPRP
Response line: -0.0863

Prompt line: Answer with reported shrunken log2 fold change of RRIRVRPPRLPRPRPRPVKLPRP
Response line: -0.407

Prompt line: Answer with reported shrunken log2 fold change of RRIRLRPPRLPRPRPRPPLIPRP
Response line: -0.258

Prompt line: Answer with reported shrunken log2 fold change of RRIRKRPPRLPRPRPRPPLKPRP
Response line: 0.419

Prompt line: Answer with reported shrunken log2 fold change of RRIRRRPPRLPRPRPRPLWWPRP
Response line: 0.48

Prompt line: Answer with reported shrunken log2 fold change of RRIRRRPPRLPRPRPRPITPPRP
Response line: 0.243

Prompt line: Answer with reported shrunken log2 fold change of RRIRMRPPRLPRPRPRPQHSPRP
Response line: -0.183

Prompt line: Answer with reported shrunken log2 fold change of RRIRKRPPRLPRPRPRPKKPPRP
Response line: 0.0909

Prompt line: Answer with reported shrunken log2 fold change of RRIRGRPPRLPRPRPRPRCGPRP
Response line: 0.751

Prompt line: Answer with reported shrunken log2 fold change of RRIRSRPPRLPRPRPRPMSNPRP
Response line: 0.129

Prompt line: Answer with reported shrunken log2 fold change of RRIRDRPPRLPRPRPRPPSRPRP
Response line: -0.0515

Prompt line: Answer with reported shrunken log2 fold change of RRIRERPPRLPRPRPRPRYRPRP
Response line: -0.198

Prompt line: Answer with reported shrunken log2 fold change of RRIRMRPPRLPRPRPRPCQSPRP
Response line: 0.288

Prompt line: Answer with reported shrunken log2 fold change of RRIRFRPPRLPRPRPRPNYKPRP
Response line: -0.735

Prompt line: Answer with reported shrunken log2 fold change of RRIRVRPPRLPRPRPRPPCLPRP
Response line: -0.108

Prompt line: Answer with reported shrunken log2 fold change of RRIRHRPPRLPRPRPRPWYDPRP
Response line: 0.0351

Prompt line: Answer with reported shrunken log2 fold change of RRIRKRPPRLPRPRPRPDRLPRP
Response line: -0.038

Prompt line: Answer with reported shrunken log2 fold change of RRIRKRPPRLPRPRPRPTVWPRP
Response line: 0.548

Prompt line: Answer with reported shrunken log2 fold change of RRIRQRPPRLPRPRPRPPKWPRP
Response line: 0.136

Prompt line: Answer with reported shrunken log2 fold change of RRIRRRPPRLPRPRPRPENNPRP
Response line: 0.0497

Prompt line: Answer with reported shrunken log2 fold change of RRIRQRPPRLPRPRPRPMMSPRP
Response line: -0.0325

Prompt line: Answer with reported shrunken log2 fold change of RRIRQRPPRLPRPRPRPKQIPRP
Response line: -0.103

Prompt line: Answer with reported shrunken log2 fold change of RRIRRRPPRLPRPRPRPRWWPRP
Response line: 0.318

Prompt line: Answer with reported shrunken log2 fold change of RRIRGRPPRLPRPRPRPKVCPRP
Response line: 0.232

Prompt line: Answer with reported shrunken log2 fold change of RRIRMRPPRLPRPRPRPVFNPRP
Response line: -0.0958

Prompt line: Answer with reported shrunken log2 fold change of RRIRQRPPRLPRPRPRPFDIPRP
Response line: -0.16

Prompt line: Answer with reported shrunken log2 fold change of RRIRKRPPRLPRPRPRPCMDPRP
Response line: -0.122

Prompt line: Answer with reported shrunken log2 fold change of RRIRERPPRLPRPRPRPLNNPRP
Response line: -0.705

Prompt line: Answer with reported shrunken log2 fold change of RRIRIRPPRLPRPRPRPWYFPRP
Response line: -0.19

Prompt line: Answer with reported shrunken log2 fold change of RRIRDRPPRLPRPRPRPPGVPRP
Response line: 0.127

Prompt line: Answer with reported shrunken log2 fold change of RRIRKRPPRLPRPRPRPMPAPRP
Response line: 0.15

Prompt line: Answer with reported shrunken log2 fold change of RRIRVRPPRLPRPRPRPMPVPRP
Response line: 0.00602

Prompt line: Answer with reported shrunken log2 fold change of RRIRYRPPRLPRPRPRPPWFPRP
Response line: -0.205

Prompt line: Answer with reported shrunken log2 fold change of RRIRARPPRLPRPRPRPGFDPRP
Response line: 0.719

Prompt line: Answer with reported shrunken log2 fold change of RRIRSRPPRLPRPRPRPIHSPRP
Response line: -0.567

Prompt line: Answer with reported shrunken log2 fold change of RRIRPRPPRLPRPRPRPINVPRP
Response line: -0.366

Prompt line: Answer with reported shrunken log2 fold change of RRIRVRPPRLPRPRPRPTRYPRP
Response line: -0.0106

Prompt line: Answer with reported shrunken log2 fold change of RRIRLRPPRLPRPRPRPTFFPRP
Response line: 0.14

Prompt line: Answer with reported shrunken log2 fold change of RRIRARPPRLPRPRPRPQVAPRP
Response line: 0.591

Prompt line: Answer with reported shrunken log2 fold change of RRIRFRPPRLPRPRPRPGFFPRP
Response line: 0.023

Prompt line: Answer with reported shrunken log2 fold change of RRIRFRPPRLPRPRPRPTEGPRP
Response line: -0.289

Prompt line: Answer with reported shrunken log2 fold change of RRIRKRPPRLPRPRPRPYIIPRP
Response line: -0.0823

Prompt line: Answer with reported shrunken log2 fold change of RRIRYRPPRLPRPRPRPIPIPRP
Response line: -0.168

Prompt line: Answer with reported shrunken log2 fold change of RRIRERPPRLPRPRPRPAKIPRP
Response line: 0.039

Prompt line: Answer with reported shrunken log2 fold change of RRIRDRPPRLPRPRPRPWLPPRP
Response line: 0.0708

Prompt line: Answer with reported shrunken log2 fold change of RRIRRRPPRLPRPRPRPQFHPRP
Response line: -0.133

Prompt line: Answer with reported shrunken log2 fold change of RRIRARPPRLPRPRPRPGKVPRP
Response line: 0.0119

Prompt line: Answer with reported shrunken log2 fold change of RRIRTRPPRLPRPRPRPDFDPRP
Response line: -0.375

Prompt line: Answer with reported shrunken log2 fold change of RRIRIRPPRLPRPRPRPSDTPRP
Response line: 0.00546

Prompt line: Answer with reported shrunken log2 fold change of RRIRERPPRLPRPRPRPWREPRP
Response line: 0.127

Prompt line: Answer with reported shrunken log2 fold change of RRIRYRPPRLPRPRPRPIQWPRP
Response line: -0.00101

Prompt line: Answer with reported shrunken log2 fold change of RRIRMRPPRLPRPRPRPWTGPRP
Response line: -0.217

Prompt line: Answer with reported shrunken log2 fold change of RRIRGRPPRLPRPRPRPLFIPRP
Response line: -0.234

Prompt line: Answer with reported shrunken log2 fold change of RRIRMRPPRLPRPRPRPFPQPRP
Response line: 0.103

---

- System: Escherichia coli TOP10;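 further: peptides expressed intracellularly from a pBAD plasmid library in pooled LB shake-flask culture, induced with 0.3% L-arabinose, DNA abundance read by NGS, three biological replicates, DESeq2 with apeglm shrinkage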
- protocol.details: shrunken log2 fold change of peptide-encoding DNA abundance (4.5 h post-induction vs induction); higher = less antimicrobial activity (less host growth inhibition)
- test.conditions: time post-induction: 4.5 h; library: site-saturation at positions 5, 18, 19, 20
Labels assigned by shrunken log2 fold change range: low (below -0.1), middle (-0.1 to below 0.1), high (0.1 or more)

Prompt line: For RRIRQRPPRLPRPRPRPIECPRP , which shrunken log2 fold change bin applies?
Response line: middle

Prompt line: For RRIRHRPPRLPRPRPRPIHLPRP , which shrunken log2 fold change bin applies?
Response line: low

Prompt line: For RRIRYRPPRLPRPRPRPLTYPRP , which shrunken log2 fold change bin applies?
Response line: low

Prompt line: For RRIRSRPPRLPRPRPRPVAVPRP , which shrunken log2 fold change bin applies?
Response line: middle

Prompt line: For RRIRERPPRLPRPRPRPYQDPRP , which shrunken log2 fold change bin applies?
Response line: middle

Prompt line: For RRIRSRPPRLPRPRPRPGLQPRP , which shrunken log2 fold change bin applies?
Response line: high

Prompt line: For RRIRNRPPRLPRPRPRPDLTPRP , which shrunken log2 fold change bin applies?
Response line: low

Prompt line: For RRIRKRPPRLPRPRPRPCCCPRP , which shrunken log2 fold change bin applies?
Response line: high

Prompt line: For RRIRRRPPRLPRPRPRPWELPRP , which shrunken log2 fold change bin applies?
Response line: middle

Prompt line: For RRIRCRPPRLPRPRPRPAMNPRP , which shrunken log2 fold change bin applies?
Response line: middle

Prompt line: For RRIRPRPPRLPRPRPRPYWLPRP , which shrunken log2 fold change bin applies?
Response line: low

Prompt line: For RRIRIRPPRLPRPRPRPSNKPRP , which shrunken log2 fold change bin applies?
Response line: low

Prompt line: For RRIRQRPPRLPRPRPRPSKFPRP , which shrunken log2 fold change bin applies?
Response line: low

Prompt line: For RRIRLRPPRLPRPRPRPPCKPRP , which shrunken log2 fold change bin applies?
Response line: high

Prompt line: For RRIRHRPPRLPRPRPRPKINPRP , which shrunken log2 fold change bin applies?
Response line: low

Prompt line: For RRIRYRPPRLPRPRPRPFLNPRP , which shrunken log2 fold change bin applies?
Response line: low

Prompt line: For RRIRIRPPRLPRPRPRPPTKPRP , which shrunken log2 fold change bin applies?
Response line: high

Prompt line: For RRIRQRPPRLPRPRPRPKWTPRP , which shrunken log2 fold change bin applies?
Response line: low

Prompt line: For RRIRTRPPRLPRPRPRPPPCPRP , which shrunken log2 fold change bin applies?
Response line: high

Prompt line: For RRIRERPPRLPRPRPRPISCPRP , which shrunken log2 fold change bin applies?
Response line: low

Prompt line: For RRIRRRPPRLPRPRPRPESKPRP , which shrunken log2 fold change bin applies?
Response line: high

Prompt line: For RRIRARPPRLPRPRPRPMAMPRP , which shrunken log2 fold change bin applies?
Response line: high

Prompt line: For RRIRARPPRLPRPRPRPSISPRP , which shrunken log2 fold change bin applies?
Response line: middle

Prompt line: For RRIRHRPPRLPRPRPRPYWWPRP , which shrunken log2 fold change bin applies?
Response line: low

Prompt line: For RRIRGRPPRLPRPRPRPCYFPRP , which shrunken log2 fold change bin applies?
Response line: middle

Prompt line: For RRIRTRPPRLPRPRPRPYNFPRP , which shrunken log2 fold change bin applies?
Response line: middle

Prompt line: For RRIRYRPPRLPRPRPRPNSFPRP , which shrunken log2 fold change bin applies?
Response line: middle

Prompt line: For RRIRERPPRLPRPRPRPNLQPRP , which shrunken log2 fold change bin applies?
Response line: low

Prompt line: For RRIRFRPPRLPRPRPRPTGEPRP , which shrunken log2 fold change bin applies?
Response line: high

Prompt line: For RRIRLRPPRLPRPRPRPREIPRP , which shrunken log2 fold change bin applies?
Response line: middle

Prompt line: For RRIRVRPPRLPRPRPRPCCDPRP , which shrunken log2 fold change bin applies?
Response line: low

Prompt line: For RRIRARPPRLPRPRPRPVEWPRP , which shrunken log2 fold change bin applies?
Response line: high

Prompt line: For RRIRERPPRLPRPRPRPMDGPRP , which shrunken log2 fold change bin applies?
Response line: middle

Prompt line: For RRIRWRPPRLPRPRPRPCHHPRP , which shrunken log2 fold change bin applies?
Response line: low

Prompt line: For RRIRHRPPRLPRPRPRPPHPPRP , which shrunken log2 fold change bin applies?
Response line: high

Prompt line: For RRIRCRPPRLPRPRPRPYLPPRP , which shrunken log2 fold change bin applies?
Response line: low

Prompt line: For RRIRMRPPRLPRPRPRPVPDPRP , which shrunken log2 fold change bin applies?
Response line: high

Prompt line: For RRIRPRPPRLPRPRPRPLTPPRP , which shrunken log2 fold change bin applies?
Response line: high

Prompt line: For RRIRDRPPRLPRPRPRPMDVPRP , which shrunken log2 fold change bin applies?
Response line: middle

Prompt line: For RRIRDRPPRLPRPRPRPTHCPRP , which shrunken log2 fold change bin applies?
Response line: middle

Prompt line: For RRIRRRPPRLPRPRPRPGYFPRP , which shrunken log2 fold change bin applies?
Response line: low

Prompt line: For RRIRCRPPRLPRPRPRPWQAPRP , which shrunken log2 fold change bin applies?
Response line: high

Prompt line: For RRIRWRPPRLPRPRPRPCDFPRP , which shrunken log2 fold change bin applies?
Response line: high

Prompt line: For RRIRWRPPRLPRPRPRPTACPRP , which shrunken log2 fold change bin applies?
Response line: high

Prompt line: For RRIRQRPPRLPRPRPRPTKIPRP , which shrunken log2 fold change bin applies?
Response line: low

Prompt line: For RRIRWRPPRLPRPRPRPTCEPRP , which shrunken log2 fold change bin applies?
Response line: high

Prompt line: For RRIRKRPPRLPRPRPRPYPHPRP , which shrunken log2 fold change bin applies?
Response line: low
